system: Escherichia coli TOP10; experiment: shrunken log2 fold change of peptide-encoding DNA abundance (4.5 h post-induction vs induction); higher = less antimicrobial activity (less host growth inhibition); conditions: time post-induction: 4.5 h; library: site-saturation at positions 5, 18, 19, 20;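 also: peptides expressed intracellularly from a pBAD plasmid library in pooled LB shake-flask culture, induced with 0.3% L-arabinose, DNA abundance read by NGS, three biological replicates, DESeq2 with apeglm shrinkage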
measurement label: shrunken log2 fold change
Please give the numeric answer without any surrounding text.

Guide cases for shrunken log2 fold change, answers given:
[
  {
    "seq string": "RRIRGRPPRLPRPRPRPYKCPRP",
    "reported measurement": -0.00955
  },
  {
    "seq string": "RRIRMRPPRLPRPRPRPSVGPRP",
    "reported measurement": 0.357
  },
  {
    "seq string": "RRIRGRPPRLPRPRPRPIQWPRP",
    "reported measurement": 0.325
  }
]

# input sequence: RRIRWRPPRLPRPRPRPDIIPRP ; wanted: its shrunken log2 fold change
0.0562

Which shrunken log2 fold change is listed for RRIRCRPPRLPRPRPRPKVEPRP ?
0.345

Given the sequence RRIRRRPPRLPRPRPRPYIAPRP , what is its reported shrunken log2 fold change?
-0.54

Request the reported shrunken log2 fold change associated with RRIRARPPRLPRPRPRPMKIPRP
0.275

What does the record list as shrunken log2 fold change for RRIRRRPPRLPRPRPRPRCWPRP ?
0.486

Please report the recorded shrunken log2 fold change for RRIRKRPPRLPRPRPRPFRDPRP .
0.222

Query (sequence): RRIRARPPRLPRPRPRPRHIPRP ; field requested: shrunken log2 fold change
-0.177

Entry RRIRHRPPRLPRPRPRPMDDPRP : reported shrunken log2 fold change = ?
-0.118

Item under review: RRIRVRPPRLPRPRPRPVHSPRP . Reported shrunken log2 fold change?
0.0275

Quick check: shrunken log2 fold change of RRIRRRPPRLPRPRPRPPQEPRP ?
0.405
